Measured selectivity ratio accompanies every entry in the list below.
# System: MRP1
# Protocol text: in vitro
# Details: mouse, L929 cells (IC50) versus 2008/MRP1 cells (EC50)
# Description: Selectivity index, ratio of IC50 for mouse L929 cells to EC50 for MRP1 in human 2008/MRP1 cells

Recorded results for 5 molecules are shown here.
substance_smiles=O=c1cc(-c2ccc(OCCOCCn3cc(COCCOc4ccc5c(=O)cc(-c6ccccc6)oc5c4)nn3)cc2)oc2ccccc12 result="> 190"
substance_smiles=Cc1ccc2oc(-c3ccc(OCCCCc4cn(CCOCCOCCOc5ccc(-c6cc(=O)c7cc(F)ccc7o6)cc5)nn4)cc3)cc(=O)c2c1 result="> 461"
substance_smiles=O=c1cc(-c2ccc(OCCCc3cn(CCOCCOc4ccc5c(=O)cc(-c6ccccc6)oc5c4)nn3)cc2)oc2cc(F)ccc12 result="> 1890"
substance_smiles=Cc1ccc2oc(-c3ccc(OCCCCc4cn(CCOCCOc5ccc(-c6cc(=O)c7cc(F)ccc7o6)cc5)nn4)cc3)cc(=O)c2c1 result="> 400"
substance_smiles=O=c1cc(-c2ccccc2)oc2cc(OCCN(Cc3ccccc3)Cc3cn(CCOCCOCCOc4ccc(-c5cc(=O)c6cc(F)ccc6o5)cc4)nn3)ccc12 result="> 641"

Lab note: next molecule to report on.
Inquiry: Returns the measured selectivity ratio for the input molecule. Input: `O=c1cc(-c2ccccc2)oc2cc(OCCOCc3cn(CCOCCOCCOc4ccc(-c5oc6ccccc6c(=O)c5OCc5ccccc5)cc4)nn3)ccc12`
Reply text: > 518

###

# Study system: Multidrug resistance-associated protein 1 (Homo sapiens, UniProt P33527)
# Sequence (P33527 whole entry): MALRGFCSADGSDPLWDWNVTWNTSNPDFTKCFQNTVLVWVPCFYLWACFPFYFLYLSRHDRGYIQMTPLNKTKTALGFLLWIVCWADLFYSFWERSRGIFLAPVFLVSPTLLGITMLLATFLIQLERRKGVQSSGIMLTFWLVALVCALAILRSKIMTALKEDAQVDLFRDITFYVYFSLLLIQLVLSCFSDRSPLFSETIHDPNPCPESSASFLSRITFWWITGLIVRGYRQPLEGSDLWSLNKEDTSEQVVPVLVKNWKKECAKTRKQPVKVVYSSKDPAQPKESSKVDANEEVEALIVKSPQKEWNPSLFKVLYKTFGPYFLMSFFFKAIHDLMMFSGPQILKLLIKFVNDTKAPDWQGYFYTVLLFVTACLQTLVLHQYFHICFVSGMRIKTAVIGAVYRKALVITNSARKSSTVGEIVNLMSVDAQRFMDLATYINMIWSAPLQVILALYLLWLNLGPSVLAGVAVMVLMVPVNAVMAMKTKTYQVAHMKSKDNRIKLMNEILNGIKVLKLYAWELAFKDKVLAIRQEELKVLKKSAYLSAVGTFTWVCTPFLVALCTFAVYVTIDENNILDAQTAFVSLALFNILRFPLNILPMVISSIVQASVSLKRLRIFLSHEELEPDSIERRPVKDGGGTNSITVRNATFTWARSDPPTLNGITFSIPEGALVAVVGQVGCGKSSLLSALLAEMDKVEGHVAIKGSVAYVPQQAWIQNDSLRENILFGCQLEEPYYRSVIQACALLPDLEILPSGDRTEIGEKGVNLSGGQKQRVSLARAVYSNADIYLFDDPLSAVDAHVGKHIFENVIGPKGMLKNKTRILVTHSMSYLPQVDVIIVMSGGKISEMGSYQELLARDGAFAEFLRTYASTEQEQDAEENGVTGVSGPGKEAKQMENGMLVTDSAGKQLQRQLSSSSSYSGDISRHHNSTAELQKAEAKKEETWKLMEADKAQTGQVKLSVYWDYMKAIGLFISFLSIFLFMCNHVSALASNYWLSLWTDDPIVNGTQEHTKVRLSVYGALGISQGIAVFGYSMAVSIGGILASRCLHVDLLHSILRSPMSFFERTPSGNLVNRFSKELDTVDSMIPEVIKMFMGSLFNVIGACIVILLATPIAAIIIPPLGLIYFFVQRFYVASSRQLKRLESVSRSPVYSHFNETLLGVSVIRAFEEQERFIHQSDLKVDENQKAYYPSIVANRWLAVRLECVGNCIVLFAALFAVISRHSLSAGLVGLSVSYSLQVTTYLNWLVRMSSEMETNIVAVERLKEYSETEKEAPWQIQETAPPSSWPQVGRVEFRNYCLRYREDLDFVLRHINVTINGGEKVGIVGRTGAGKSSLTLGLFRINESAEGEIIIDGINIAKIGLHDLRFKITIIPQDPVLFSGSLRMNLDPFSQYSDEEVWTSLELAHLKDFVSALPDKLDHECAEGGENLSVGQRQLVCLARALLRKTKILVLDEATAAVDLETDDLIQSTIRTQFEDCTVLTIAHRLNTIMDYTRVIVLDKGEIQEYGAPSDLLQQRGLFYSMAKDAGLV
# Protocol text: Inhibition of MRP1 in human 2008/MRP1 cells assessed as potentiation of doxorubicin-induced cytotoxicity by measuring cell survival at 2 uM after 5 days by MTS assay relative to control
# Type: cell-based
# Details: 120 h
Measured Survival accompanies every entry in the list below.
Respond with the bare value in %.

substance_smiles=Cc1ccc2oc(-c3ccc(OCCCCc4cn(CCOCCOCCOc5ccc(-c6oc7ccccc7c(=O)c6OCc6ccccc6)cc5)nn4)cc3)cc(=O)c2c1 study_system="Multidrug resistance-associated protein 1 (Homo sapiens, UniProt P33527)" quantitative_result=59
substance_smiles=O=c1cc(-c2ccc(OCCCc3cn(CCOCCOCCOc4ccc(-c5oc6ccccc6c(=O)c5OCc5ccccc5)cc4)nn3)cc2)oc2cc(F)ccc12 study_system="Multidrug resistance-associated protein 1 (Homo sapiens, UniProt P33527)" quantitative_result=37
substance_smiles=CN(CCN(C)Cc1cn(CCOCCOCCOc2ccc(-c3cc(=O)c4cc(F)ccc4o3)cc2)nn1)Cc1cn(CCOCCOCCOc2ccc(-c3cc(=O)c4cc(F)ccc4o3)cc2)nn1 study_system="Multidrug resistance-associated protein 1 (Homo sapiens, UniProt P33527)" quantitative_result=79
substance_smiles=O=Cc1ccc(OCCCCc2cn(CCOCCOc3cccc(-c4oc5ccccc5c(=O)c4OCc4ccccc4)c3)nn2)cc1 study_system="Multidrug resistance-associated protein 1 (Homo sapiens, UniProt P33527)" quantitative_result=82
substance_smiles=O=c1cc(-c2ccc(OCCOCCn3cc(CN4CCN(Cc5cn(CCOCCOc6ccc(-c7cc(=O)c8cc(F)ccc8o7)cc6)nn5)CC4)nn3)cc2)oc2ccc(F)cc12 study_system="Multidrug resistance-associated protein 1 (Homo sapiens, UniProt P33527)" quantitative_result=86

Inquiry: Returns the measured Survival for the input molecule. Input: `O=c1cc(-c2ccccc2)oc2cc(OCCOCCOCCn3cc(CN(CCOc4ccc5c(=O)cc(-c6ccccc6)oc5c4)Cc4ccccc4)nn3)ccc12`
Reply text: 51

Inquiry: Returns the measured Survival for the input molecule. Input: `O=c1cc(-c2ccccc2)oc2cc(OCCOCCn3cc(-c4cccc(-c5cn(CCOCCOc6ccc7oc(-c8ccccc8)cc(=O)c7c6)nn5)c4)nn3)ccc12`
Reply text: 76

###

# Study system: Multidrug resistance-associated protein 1 (Homo sapiens)
# Protocol text: Inhibition of MRP1 in human 2008/MRP1 cells assessed as potentiation of doxorubicin-induced cytotoxicity by measuring cell survival at 2 uM after 5 days by MTS assay relative to control
# Assay type: cell-based
# Details: 120 h
Measured Survival accompanies every entry in the list below.
Respond with the bare value in %.

Recorded results for 5 compounds are shown here.
substance_smiles=COCOc1cc(OCc2ccccc2)c2c(=O)cc(-c3ccc(OCCCc4cn(CCOCCOc5ccc(-c6cc(=O)c7ccccc7o6)cc5)nn4)cc3)oc2c1 reading_unit=% quantitative_result=39
substance_smiles=O=c1cc(-c2ccccc2)oc2cc(OCCOCc3cn(CCOCCOc4ccc(-c5oc6ccccc6c(=O)c5OCc5ccccc5)cc4)nn3)ccc12 reading_unit=% quantitative_result=46
substance_smiles=O=c1cc(-c2ccccc2)oc2cc(OCCCCc3cn(CCOCCOCCOc4ccc(-c5oc6ccccc6c(=O)c5OCc5ccccc5)cc4)nn3)ccc12 reading_unit=% quantitative_result=63
substance_smiles=C#CCN(CC#C)Cc1ccccc1 reading_unit=% quantitative_result=81
substance_smiles=C#CCNc1ccccc1 reading_unit=% quantitative_result=87

Inquiry: Returns the measured Survival for the input compound. Input: `O=c1cc(-c2ccccc2)oc2cc(OCCOCCn3cc(COCCOc4ccc5c(=O)cc(-c6ccccc6)oc5c4)nn3)ccc12`
Reply text: 60

Inquiry: Returns the measured Survival for the input compound. Input: `O=C(/C=C/c1ccc(OCCCCc2cn(CCOCCOc3ccc(-c4cc(=O)c5cc(F)ccc5o4)cc3)nn2)cc1)c1ccccc1O`
Reply text: 72

###

Measured viability at 120 h, 2 µM accompanies every entry in the list below.
# Protocol text: Cytotoxicity against human 2008/MRP1 cells assessed as cell survival at 2 uM after 5 days by MTS assay relative to control
# Format: cell-based
# Details: read-out: Survival
Respond with the bare value in %.

substance_smiles=O=c1cc(-c2ccc(OCCCc3cn(CCOCCOCCOc4ccc5c(=O)cc(-c6ccccc6)oc5c4)nn3)cc2)oc2ccccc12 observation_type="viability at 120 h, 2 µM" quantitative_result=49
substance_smiles=O=c1cc(-c2ccccc2)oc2cc(OCCCCc3cn(CCOCCOCCOc4ccc(-c5cc(=O)c6cc(F)ccc6o5)cc4)nn3)ccc12 observation_type="viability at 120 h, 2 µM" quantitative_result=92
substance_smiles=COc1cccc(COc2c(-c3ccc(OCCOCCn4cc(COCCOc5ccc6c(=O)cc(-c7ccccc7)oc6c5)nn4)cc3)oc3ccccc3c2=O)c1 observation_type="viability at 120 h, 2 µM" quantitative_result=88
substance_smiles=O=c1cc(-c2ccccc2)oc2cc(OCCN(Cc3ccccc3)Cc3cn(CCOCCOc4ccc(-c5oc6ccccc6c(=O)c5OCc5ccccc5)cc4)nn3)ccc12 observation_type="viability at 120 h, 2 µM" quantitative_result=82
substance_smiles=O=c1cc(-c2ccc(OCCOCCOCCn3cc(CN(Cc4ccccc4)Cc4cn(CCOCCOCCOc5ccc(-c6cc(=O)c7ccccc7o6)cc5)nn4)nn3)cc2)oc2ccccc12 observation_type="viability at 120 h, 2 µM" quantitative_result=49
substance_smiles=O=c1cc(-c2ccc(OCCOCCn3cc(CCCCOc4ccc5c(=O)cc(-c6ccccc6)oc5c4)nn3)cc2)oc2ccccc12 observation_type="viability at 120 h, 2 µM" quantitative_result=95
substance_smiles=COc1cccc(COc2c(-c3ccc(OCCCCc4cn(CCOCCOCCOc5ccc(-c6cc(=O)c7cc(C)ccc7o6)cc5)nn4)cc3)oc3ccccc3c2=O)c1 observation_type="viability at 120 h, 2 µM" quantitative_result=50
substance_smiles=O=c1cc(-c2ccccc2)oc2cc(OCCOCc3cn(CCOCCOCCOc4ccc(-c5oc6ccccc6c(=O)c5OCc5ccccc5)cc4)nn3)ccc12 observation_type="viability at 120 h, 2 µM" quantitative_result=95
substance_smiles=O=c1cc(-c2ccc(OCCCc3cn(CCOCCOc4ccc5c(=O)cc(-c6ccccc6)oc5c4)nn3)cc2)oc2ccccc12 observation_type="viability at 120 h, 2 µM" quantitative_result=39
substance_smiles=O=c1cc(-c2ccc(OCCCc3cn(CCOCCOCCOc4ccc(-c5cc(=O)c6cc(F)ccc6o5)cc4)nn3)cc2)oc2cc(F)ccc12 observation_type="viability at 120 h, 2 µM" quantitative_result=95

Lab note: next compound to report on.
Inquiry: Returns the measured viability at 120 h, 2 µM for the input compound. Input: `O=C1c2ccccc2C(=O)N1CCc1cn(CCOCCOCCOc2ccc3c(=O)cc(-c4ccccc4)oc3c2)nn1`
Reply text: 23

###

# Study system: Multidrug resistance-associated protein 1 (Homo sapiens, UniProt P33527)
# Protocol text: Inhibition of MRP1 in human 2008/MRP1 cells assessed as potentiation of doxorubicin-induced cytotoxicity by measuring cell survival at 2 uM after 5 days by MTS assay relative to control
# Assay type: cell-based
# Details: 120 h
Observation type: Survival

Recorded results for 3 molecules are shown here.
substance_smiles=COc1cccc(COc2c(-c3ccc(OCCOCCn4cc(CCCOc5ccc(-c6cc(=O)c7cc(F)ccc7o6)cc5)nn4)cc3)oc3ccccc3c2=O)c1 observation_type=Survival result=86%
substance_smiles=O=c1cc(-c2ccccc2)oc2cc(OCCCCc3cn(CCOc4cccc5c(=O)cc(-c6ccccc6)oc45)nn3)ccc12 observation_type=Survival result=60%
substance_smiles=O=C1c2ccccc2C(=O)N1CCc1cn(CCOc2cccc3c(=O)cc(-c4ccccc4)oc23)nn1 observation_type=Survival result=37%

Inquiry: Returns the measured Survival for the input molecule. Input: `C#CCCCOc1ccc(-c2cc(=O)c3ccccc3o2)cc1`
Reply text: 74%

Inquiry: Returns the measured Survival for the input molecule. Input: `O=c1cc(-c2ccccc2)oc2cc(OCCCc3cn(CCOCCOc4ccc5c(=O)cc(-c6ccccc6)oc5c4)nn3)ccc12`
Reply text: 45%
